# Test system: lipase
# test protocol: Lipase/lipolysis assay (EnzChek Lipase Substrate, quenched BODIPY-fatty acid conjugate) on stored human milk; note: test concentration or dose not given here
readout type: Lipase (RFU)
Respond with the bare value in RFU.

Task: Fill blank: measured Lipase (RFU) of the compound C[S+]([O-])CCCC/C(=N\OS(=O)(=O)O)S[C@@H]1O[C@H](CO)[C@@H](O)[C@H](O)[C@H]1O (stereo partly shown) is ____.
Result: 983.9092

Task: Look up Lipase (RFU): NC(=O)C1=CN([C@@H]2O[C@H](COP(=O)([O-])OP(=O)([O-])OC[C@H]3O[C@@H](n4cnc5c(N)ncnc54)[C@H](O)[C@@H]3O)[C@@H](O)[C@H]2O)C=CC1.[Na+].[Na+] [NADH (disodium salt)]
Result: 996.9696

Task: Recorded Lipase (RFU) of `c1ccc2c(-c3nccs3)c[nH]c2c1` , please.
Result: 1018.047

Task: Reported Lipase (RFU), compound `C[C@@H]1O[C@@H](O[C@H]2[C@H](Oc3cc(O)c4c(c3)O[C@H](c3ccc(O)c(O)c3)CC4=O)O[C@H](CO)[C@@H](O)[C@@H]2O)[C@H](O)[C@H](O)[C@H]1O` : ____
Result: 1015.344
